Origin of measurements: the supplement of paper PMC6992640

# Test system: HCI11 (cells of an ER-positive luminal breast cancer xenograft)
# assay info: cell viability (% of vehicle); higher = less cytotoxic
# condition details: 10 µM; 72 h
Listed here: items and their measured cell viability.
Write the number on its own, no unit after it.

1) Nc1ncnc2c1ncn2C1OC(CO)C(O)C1O (centres undefined) [Vidarabine]    86.9
2) O=C(O)Cc1ccccc1Nc1c(Cl)cccc1Cl    96.8
3) CCCc1cc(=O)[nH]c(=S)[nH]1    97.8
4) CC(Cc1cc2c(c(C(N)=O)c1)N(CCCO)CC2)NCCOc1ccccc1OCC(F)(F)F (centres undefined)    127

Quote cell viability reported for O=C(O)CCCN1CCC(OC(c2ccc(Cl)cc2)c2ccccn2)CC1.O=S(=O)(O)c1ccccc1 (centres undefined) [Bepotastine Besilate] please. 96.6

Retrieve cell viability measured for Nc1nc(=O)c2ncn(COCCO)c2[nH]1 and print it. 113

---

Measured cell viability of combination accompanies every entry in the list below.
# Tested on: UCD52 (cells of a triple-negative basal-like breast cancer xenograft)
# assay info: cell viability of combination (% of vehicle); higher = less cytotoxic
# condition details: 1 µM; 72 h; partner dose: 10 nM
Give the value as a plain number.

Example results:
1. CN(C)CC=CC(=O)Nc1cc2c(Nc3ccc(F)c(Cl)c3)ncnc2cc1OC1CCOC1.O=C(O)C=CC(=O)O.O=C(O)C=CC(=O)O (centres undefined) [Afatinib dimaleate] + CN(C)C/C=C/C(=O)Nc1cc2c(Nc3ccc(F)c(Cl)c3)ncnc2cc1O[C@H]1CCOC1 [Afatinib]    24.5
2. CCOC(=O)C1=C(COCCN)NC(C)=C(C(=O)OC)C1c1ccccc1Cl.O=S(=O)(O)c1ccccc1 (centres undefined) [Amlodipine Besylate] + CN(C)C/C=C/C(=O)Nc1cc2c(Nc3ccc(F)c(Cl)c3)ncnc2cc1O[C@H]1CCOC1 [Afatinib]    83.6

For UCD52, give the measured cell viability of combination of the entry Nc1ccn(C2OC(CO)C(O)C2O)c(=O)n1 (centres undefined) [Cytarabine] + CN(C)C/C=C/C(=O)Nc1cc2c(Nc3ccc(F)c(Cl)c3)ncnc2cc1O[C@H]1CCOC1 [Afatinib] 65.7

# lookup: UCD52 cell viability of combination, key = CC(O)C(=O)O.CC(O)C(=O)O.CN1CCN(c2ccc3c(c2)NC(=C2C(=O)N=c4cccc(F)c4=C2N)N3)CC1 [Dovitinib Dilactic acid] + CN(C)C/C=C/C(=O)Nc1cc2c(Nc3ccc(F)c(Cl)c3)ncnc2cc1O[C@H]1CCOC1 [Afatinib] 56.7

---

# Tested on: WHIM2 (cells of a triple-negative basal-like breast cancer xenograft)
# assay info: cell viability (% of vehicle); higher = less cytotoxic
# condition details: 10 µM; 72 h
Each entry below lists one item and its recorded cell viability value.

1. CCC(CC)C(NC(C)=O)C1C(N=C(N)N)CC(C(=O)O)C1O (stereo not given) [Peramivir]    97.5

Now turn to the next compound.
Provide measured cell viability value, entry: COc1ccc(CN(CCN(C)C)c2ccccn2)cc1.O=C(O)/C=C\C(=O)O [Mepyramine maleate] 94.4

---

# Test system: WHIM2
# assay info: cell viability (% of vehicle); higher = less cytotoxic
# condition details: 10 µM; 72 h
Note to self: use Fulfilled only for cell viability readings below 100; a reading exactly at 100 still gets Not fulfilled.

Here's what some known entries look like.
1. N[C@@H](Cc1cc(I)c(Oc2cc(I)c(O)c(I)c2)c(I)c1)C(=O)O    Fulfilled
2. CC(=O)O[C@@]12CO[C@@H]1C[C@H](O)[C@@]1(C)C(=O)[C@H](O)C3=C(C)[C@@H](OC(=O)[C@H](O)[C@@H](NC(=O)OC(C)(C)C)c4ccccc4)C[C@@](O)([C@@H](OC(=O)c4ccccc4)[C@H]21)C3(C)C    Fulfilled
3. O=c1ccc2ccc(OCCCCN3CCN(c4cccc5sccc45)CC3)cc2[nH]1    Not fulfilled
4. CC1CCN(C(=O)CC#N)CC1N(C)c1ncnc2[nH]ccc12 (configuration not stated)    Fulfilled
5. CNC(=O)[C@H](Cc1ccccc1)NC(=O)[C@H](CC(C)C)[C@H](CSc1cccs1)C(=O)NO    Fulfilled

Could you now consider this next molecule?
Consider CCCCNc1cc(C(=O)O)cc(S(N)(=O)=O)c1Oc1ccccc1 [Bumetanide] . Does its cell viability lie strictly below 100? Fulfilled
